# study_system: T1, human high affinity trimeric IL-2 receptor (CD25/CD122/CD132) (human, UniProt P01589 22-272; P14784 27-551; P31785 23-369)
# T1 sequence 1: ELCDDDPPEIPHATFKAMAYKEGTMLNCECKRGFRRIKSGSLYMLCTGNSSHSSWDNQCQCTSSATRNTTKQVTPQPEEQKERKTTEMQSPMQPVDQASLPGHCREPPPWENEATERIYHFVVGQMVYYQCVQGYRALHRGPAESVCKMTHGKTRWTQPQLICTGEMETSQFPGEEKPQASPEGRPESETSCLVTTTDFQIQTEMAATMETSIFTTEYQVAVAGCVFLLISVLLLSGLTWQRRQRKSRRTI
# T1 sequence 2: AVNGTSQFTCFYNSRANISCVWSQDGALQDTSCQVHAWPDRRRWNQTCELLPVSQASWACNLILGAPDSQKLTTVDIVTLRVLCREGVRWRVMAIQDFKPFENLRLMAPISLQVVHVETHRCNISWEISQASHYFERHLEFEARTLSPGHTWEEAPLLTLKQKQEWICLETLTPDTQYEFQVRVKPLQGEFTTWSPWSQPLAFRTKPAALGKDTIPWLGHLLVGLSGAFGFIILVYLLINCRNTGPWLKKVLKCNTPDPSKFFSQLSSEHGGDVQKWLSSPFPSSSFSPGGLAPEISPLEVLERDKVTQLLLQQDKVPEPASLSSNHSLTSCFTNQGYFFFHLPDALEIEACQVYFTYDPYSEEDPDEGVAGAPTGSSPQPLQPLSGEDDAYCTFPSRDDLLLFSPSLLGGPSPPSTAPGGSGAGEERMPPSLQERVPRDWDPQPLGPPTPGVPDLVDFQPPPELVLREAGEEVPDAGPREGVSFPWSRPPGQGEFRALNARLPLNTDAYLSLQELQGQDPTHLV
# T1 sequence 3: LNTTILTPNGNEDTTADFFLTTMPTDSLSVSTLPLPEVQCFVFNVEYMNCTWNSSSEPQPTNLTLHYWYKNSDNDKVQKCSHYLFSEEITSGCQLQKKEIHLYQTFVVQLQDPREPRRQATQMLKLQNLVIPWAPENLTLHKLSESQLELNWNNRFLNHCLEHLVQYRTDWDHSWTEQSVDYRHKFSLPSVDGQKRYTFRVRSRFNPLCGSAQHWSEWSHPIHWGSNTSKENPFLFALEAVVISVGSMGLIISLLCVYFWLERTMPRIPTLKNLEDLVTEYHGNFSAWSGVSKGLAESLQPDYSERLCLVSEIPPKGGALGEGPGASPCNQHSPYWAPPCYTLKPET
# measurement_description: cell-based or functional assay
recorded_metric: pSTAT5 ratio YT CD25/YT, dilution factor 128, upper table

Solved cases below.
QEH (ligand) cytokine: APTSSSTKKTQLQLEHLQLDLEMILNGINNYKNPKLTRMLTFKFYMPKKATELKHLQCLEEELKPLEEVLNLAQSKNFHLRPRDLISNINVIVLELKGSETTFMCEYADETATIVEFLNRWITFCHSIISTLT
11.7
IEH (ligand) cytokine: APTSSSTKKTQLQLEHLILDLEMILNGINNYKNPKLTRMLTFKFYMPKKATELKHLQCLEEELKPLEEVLNLAQSKNFHLRPRDLISNINVIVLELKGSETTFMCEYADETATIVEFLNRWITFCHSIISTLT
10.9
KEH (ligand) cytokine: APTSSSTKKTQLQLEHLKLDLEMILNGINNYKNPKLTRMLTFKFYMPKKATELKHLQCLEEELKPLEEVLNLAQSKNFHLRPRDLISNINVIVLELKGSETTFMCEYADETATIVEFLNRWITFCHSIISTLT
4

P = hIL2 mutein REH (L18R, Q22E, Q126H) (ligand) APTSSSTKKTQLQLEHLRLDLEMILNGINNYKNPKLTRMLTFKFYMPKKATELKHLQCLEEELKPLEEVLNLAQSKNFHLRPRDLISNINVIVLELKGSETTFMCEYADETATIVEFLNRWITFCHSIISTLT
Q = hIL2 mutein REK (L18R, Q22E, Q126K) (ligand) APTSSSTKKTQLQLEHLRLDLEMILNGINNYKNPKLTRMLTFKFYMPKKATELKHLQCLEEELKPLEEVLNLAQSKNFHLRPRDLISNINVIVLELKGSETTFMCEYADETATIVEFLNRWITFCKSIISTLT
Identify the entry with the larger pSTAT5 ratio YT CD25/YT, dilution factor 128, upper table. Options: P and Q Record your answer as the label of the chosen record.
Q
